- System name: full length active recombinant SYK enzyme (Homo sapiens, UniProt P43405)
- Construct: full length active recombinant SYK enzyme (Millipore, Calif.)
- Test details: Inhibition of Syk tyrosine phosphorylation activity (LANCE TR-FRET kinase assay)
- Condition summary: 1 nM active SYK enzyme, 550 nM SYK-substrate, 100 μM ATP, 1 hour at room temperature
pIC50: −log10 of the molar value.
Consider the following molecules; for each one, report its pIC50.

Noted for Cc1ccc(Nc2nc(N[C@H](CC(C)C)C(N)=O)nnc2C(N)=O)cc1C [Example 209] : its pIC50 reads 8.00 to 9.00

Reported pIC50 ( COc1ccc(Nc2nc(N[C@H](CC(C)C)C(N)=O)nnc2C(N)=O)cc1C(F)(F)F [Example 113] ) = 7.00 to 8.00

Summary for this molecule, NC(=O)c1nnc(N[C@@H]2CCOC[C@@H]2N)nc1Nc1ccc2ncccc2c1 [Example 55] : pIC50 is 8.00 to 9.00

Lookup result for NC(=O)c1nnc(N[C@@H]2CCCC(F)(F)[C@@H]2N)nc1Nc1ccc2scnc2c1 [Example 245] ; measured pIC50: 7.00 to 8.00

----------
- System name: full length active recombinant SYK enzyme (Homo sapiens)
- Construct: full length active recombinant SYK enzyme (Millipore, Calif.)
- Test details: Inhibition of Syk tyrosine phosphorylation activity (LANCE TR-FRET kinase assay)
- Condition summary: 1 nM active SYK enzyme, 550 nM SYK-substrate, 100 μM ATP, 1 hour at room temperature
pIC50: −log10 of the molar value.
Property: pIC50

The recorded pIC50 with full length active recombinant SYK enzyme (Homo sapiens) for NC(=O)c1nnc(N[C@@H]2CCCC(F)(F)[C@@H]2N)nc1Nc1ccc2ncccc2c1 was 7.00 to 8.00

Reading of pIC50 for NC(=O)c1nnc(N[C@@H]2CCCC(F)(F)[C@@H]2N)nc1Nc1ccc2c(c1)CS(=O)(=O)C2 with full length active recombinant SYK enzyme (Homo sapiens): 6.00 to 7.00

Known value: full length active recombinant SYK enzyme (Homo sapiens) pIC50 of the compound Cc1ccc(Nc2nc(N[C@@H]3CCCC[C@@H]3N)nnc2C(N)=O)cc1C equals 8.00 to 9.00

CC[C@@H](Nc1nnc(C(N)=O)c(Nc2cnc3ccccc3c2)n1)C(N)=O on full length active recombinant SYK enzyme (Homo sapiens) gives pIC50 = 7.00 to 8.00

Hey, full length active recombinant SYK enzyme (Homo sapiens) data for NC(=O)c1nnc(N[C@@H]2CCCC[C@@H]2N)nc1Nc1ccc(N2CCOCC2=O)cc1 : pIC50 came out at 6.00 to 7.00

Bench note, full length active recombinant SYK enzyme (Homo sapiens): entry CC[C@@H](Nc1nnc(C(N)=O)c(Nc2ccccc2)n1)C(N)=O , its pIC50 = 6.00 to 7.00

// assay full length active recombinant SYK enzyme (Homo sapiens), entry Cc1ccc(Nc2nc(N[C@@H]3CCCC(F)(F)[C@@H]3N)nnc2C(N)=O)cc1F , pIC50 value = 7.00 to 8.00

Noted pIC50 for CC[C@@H](Nc1nnc(C(N)=O)c(Nc2cnc3ccc(F)cc3c2)n1)C(N)=O , tested on full length active recombinant SYK enzyme (Homo sapiens): 7.00 to 8.00

Record CC(C)C[C@@H](Nc1nnc(C(N)=O)c(Nc2ccc(Cl)cc2)n1)C(N)=O has full length active recombinant SYK enzyme (Homo sapiens) pIC50 equal to 7.00 to 8.00

Form field, pIC50 with full length active recombinant SYK enzyme (Homo sapiens), item CC[C@@H](Nc1nnc(C(N)=O)c(Nc2ccc(Cl)cc2)n1)C(N)=O : 7.00 to 8.00

Item CC(C)C[C@@H](Nc1nnc(C(N)=O)c(Nc2cncc(F)c2)n1)C(N)=O was tested on full length active recombinant SYK enzyme (Homo sapiens); the reported pIC50 is 6.00 to 7.00

Record N#Cc1ccccc1Nc1nc(N[C@@H]2CCCC[C@@H]2N)nnc1C(N)=O ; system full length active recombinant SYK enzyme (Homo sapiens); pIC50 = 6.00 to 7.00

Field pIC50 (system: full length active recombinant SYK enzyme (Homo sapiens)) for entry CC[C@@H](Nc1nnc(C(N)=O)c(Nc2ccc3c(c2)c(C#N)cn3C)n1)C(N)=O = > 9.00

Tested on full length active recombinant SYK enzyme (Homo sapiens): Cc1cc(Nc2nc(N[C@H](CC3CC3)C(N)=O)nnc2C(N)=O)sn1 . Observed pIC50: 7.00 to 8.00

pIC50 of NC(=O)c1nnc(N[C@@H]2CCCC[C@@H]2N)nc1Nc1cnc2cc(F)ccc2c1 , assay on full length active recombinant SYK enzyme (Homo sapiens), is 8.00 to 9.00

# pIC50 measured on full length active recombinant SYK enzyme (Homo sapiens) for item CN(C)c1ccc(Nc2nc(N[C@@H]3CCCC[C@@H]3N)nnc2C(N)=O)cc1F = 7.00 to 8.00

----------
- System name: full length active recombinant SYK enzyme (Homo sapiens, UniProt P43405)
- Construct: full length active recombinant SYK enzyme (Millipore, Calif.)
- Test details: Inhibition of Syk tyrosine phosphorylation activity (LANCE TR-FRET kinase assay)
- Condition summary: 1 nM active SYK enzyme, 550 nM SYK-substrate, 100 μM ATP, 1 hour at room temperature
Property: IC50

Value (IC50, full length active recombinant SYK enzyme (Homo sapiens, UniProt P43405)) for record CC[C@@H](Nc1nnc(C(N)=O)c(Nc2ccc3cc[nH]c3c2)n1)C(N)=O [Example 102] = 1 to 10 nM

IC50 of NC(=O)c1nnc(N[C@@H]2CCCC(F)(F)[C@@H]2N)nc1Nc1cccc(C(F)(F)F)c1 [Example 238] , assay on full length active recombinant SYK enzyme (Homo sapiens, UniProt P43405), is > 1000 nM

The compound CC[C@@H](Nc1nnc(C(N)=O)c(Nc2cnc3c(ccn3C)c2)n1)C(N)=O [Example 152] , tested on full length active recombinant SYK enzyme (Homo sapiens, UniProt P43405), showed IC50 of 10 to 100 nM

Fill in: full length active recombinant SYK enzyme (Homo sapiens, UniProt P43405) IC50 for NC(=O)c1nnc(N[C@H](CC2CC2)C(N)=O)nc1Nc1ccc(Cl)cc1 [Example 249] = 10 to 100 nM

Entry Cc1ccc(Nc2nc(N[C@@H]3CCOC[C@@H]3N)nnc2C(N)=O)cc1Cl [Example 225] under full length active recombinant SYK enzyme (Homo sapiens, UniProt P43405) had IC50 of 1 to 10 nM

Let me check: NC(=O)c1nnc(N[C@@H]2CCOC[C@@H]2N)nc1Nc1ccc2c(c1)CCC2 [Example 223] , system full length active recombinant SYK enzyme (Homo sapiens, UniProt P43405), measured IC50 is 1 to 10 nM

Here CC[C@@H](Nc1nnc(C(N)=O)c(Nc2ccc(C)c(C)c2)n1)C(N)=O [Example 203] was tested on full length active recombinant SYK enzyme (Homo sapiens, UniProt P43405), and its IC50 came to 10 to 100 nM

Reported full length active recombinant SYK enzyme (Homo sapiens, UniProt P43405) IC50 for item CC(C)C[C@@H](Nc1nnc(C(N)=O)c(Nc2cccc(-n3nccn3)c2)n1)C(N)=O [Example 83] was 10 to 100 nM

----------
- System name: full length active recombinant SYK enzyme (Homo sapiens, UniProt P43405)
- Construct: full length active recombinant SYK enzyme (Millipore, Calif.)
- Test details: Inhibition of Syk tyrosine phosphorylation activity (LANCE TR-FRET kinase assay)
- Condition summary: 1 nM active SYK enzyme, 550 nM SYK-substrate, 100 μM ATP, 1 hour at room temperature
pIC50: −log10 of the molar value.
Exercise: for every item that follows, state its recorded pIC50.

Record NC(=O)c1nnc(N[C@@H]2CCCC[C@@H]2N)nc1Nc1ccc(Cl)cc1 [Example 27] ; system full length active recombinant SYK enzyme (Homo sapiens, UniProt P43405); pIC50 = 8.00 to 9.00

Entry NC(=O)c1nnc(N[C@@H]2CCCC[C@@H]2N)nc1Nc1cccc2ncsc12 [Example 40] , tested on full length active recombinant SYK enzyme (Homo sapiens, UniProt P43405), has a reported pIC50 of 7.00 to 8.00

The recorded pIC50 with full length active recombinant SYK enzyme (Homo sapiens, UniProt P43405) for NC(=O)c1nnc(N[C@@H]2CCCC[C@@H]2N)nc1Nc1cncc(F)c1 [Example 14] was 6.00 to 7.00

Entry CC[C@@H](Nc1nnc(C(N)=O)c(Nc2csc3ncccc23)n1)C(N)=O [Example 39] : pIC50 on full length active recombinant SYK enzyme (Homo sapiens, UniProt P43405) = 8.00 to 9.00

----------
Record form. Attribute: IC50. Fill in for each entry.
- System name: full length active recombinant SYK enzyme (Homo sapiens, UniProt P43405)
- Construct: full length active recombinant SYK enzyme (Millipore, Calif.)
- Test details: Inhibition of Syk tyrosine phosphorylation activity (LANCE TR-FRET kinase assay)
- Condition summary: 1 nM active SYK enzyme, 550 nM SYK-substrate, 100 μM ATP, 1 hour at room temperature

So, Cn1cc(C#N)c2ccc(Nc3nc(N[C@@H]4CCCC(F)(F)[C@@H]4N)nnc3C(N)=O)cc21 ? Its IC50 was 10 to 100 nM

Value of measured IC50 for the entry COc1ccc(Nc2nc(N[C@@H]3CCCC[C@@H]3N)nnc2C(N)=O)cc1C(F)(F)F : 1 to 10 nM

Form: compound = NC(=O)c1nnc(N[C@@H]2CCCC(F)(F)[C@@H]2N)nc1Nc1ccc2c(ccc[n+]2[O-])c1 ; IC50 = 100 to 1000 nM

Item: N#Cc1ccc(Nc2nc(N[C@@H]3CCOC[C@@H]3N)nnc2C(N)=O)cc1 | IC50: 100 to 1000 nM

GET /value?item= Cc1ccc(Nc2nc(N[C@@H]3CCCC(F)(F)[C@@H]3N)nnc2C(N)=O)cc1C &field=IC50 returns 10 to 100 nM

For this compound ( NC(=O)c1nnc(N[C@@H]2CCOC[C@@H]2N)nc1Nc1ccc(Cl)c(Cl)c1 ), measured IC50 is 10 to 100 nM

Entry NC(=O)c1nnc(N[C@@H]2CCCC[C@@H]2N)nc1Nc1cnc2ccc(F)cc2c1 — recorded IC50 = 10 to 100 nM

Short answer for Cn1cc(Nc2nc(N[C@@H]3CCCC[C@@H]3N)nnc2C(N)=O)cn1 : IC50 was 100 to 1000 nM

Form: compound = CC[C@@H](Nc1nnc(C(N)=O)c(Nc2ccc3ncccc3c2)n1)C(N)=O ; IC50 = 1 to 10 nM

Please fill in: IC50 reported for NC(=O)c1nnc(N[C@@H]2CCCC[C@@H]2N)nc1Nc1ccc2cn[nH]c2c1 = < 1 nM

Measured IC50, CC[C@@H](Nc1nnc(C(N)=O)c(Nc2ccc(OC)c(C(F)(F)F)c2)n1)C(N)=O : 100 to 1000 nM

Short answer for Cn1ccc2c(Nc3nc(N[C@@H]4CCNC4)nnc3C(N)=O)cccc21 : IC50 was 1 to 10 nM

Looking up CC[C@@H](Nc1nnc(C(N)=O)c(Nc2ccc(Cl)c(OC)c2)n1)C(N)=O , I found its IC50 recorded as 10 to 100 nM

response.value for CC[C@@H](Nc1nnc(C(N)=O)c(Nc2ccc3c(c2)COC3)n1)C(N)=O (field: IC50) = 10 to 100 nM

Note to self: IC50 recorded for Cc1cc(F)cc(Nc2nc(N[C@@H]3CCCC[C@@H]3N)nnc2C(N)=O)c1 was 1 to 10 nM

Lab note: CC[C@@H](Nc1nnc(C(N)=O)c(Nc2ccc3c(c2)COCC3)n1)C(N)=O gave IC50 of 1 to 10 nM
